Assignment: determine reported MIC for the given molecules.
Tested on: S. pneumoniae
Assay notes: MIC, broth microdilution
Type: cell-based, Streptococcus pneumoniae
Condition label: S. pneumoniae PU09, mef
Numbers only, in µg/mL.

Recorded results for 3 molecules are shown here.
CC[C@H]1OC(=O)[C@H](C)[C@@H](OC(=O)NCCOCCC#Cc2ccc3c(c2)c(=O)c(C(=O)O)cn3C2CC2)[C@H](C)[C@@H](O[C@@H]2O[C@H](C)C[C@H](N(C)C)[C@H]2O)[C@](C)(O)C[C@@H](C)CN(C)[C@H](C)[C@H]2OC(=O)O[C@@]21C [116a] = 8
CC[C@H]1OC(=O)[C@H](C)[C@@H](OC(=O)NCCCOCCC#Cc2ccc3c(c2)c(=O)c(C(=O)O)cn3C2CC2)[C@H](C)[C@@H](O[C@@H]2O[C@H](C)C[C@H](N(C)C)[C@H]2O)[C@](C)(O)C[C@@H](C)CN(C)[C@H](C)[C@H]2OC(=O)O[C@@]21C [117a] = 2
CC[C@H]1OC(=O)[C@H](C)[C@@H](OC(=O)NCCCCCCC#Cc2ccc3c(=O)c(C(=O)O)cn(C4CC4)c3c2)[C@H](C)[C@@H](O[C@@H]2O[C@H](C)C[C@H](N(C)C)[C@H]2O)[C@](C)(OC)C[C@@H](C)C(=NOC)[C@H](C)[C@H]2OC(=O)O[C@@]21C [58c] = 0.25

[ask] Using the record for CC[C@H]1OC(=O)[C@H](C)[C@@H](OC(=O)NCCCCCCCCCc2ccc3c(c2)c(=O)c(C(N)=O)cn3C2CC2)[C@H](C)[C@@H](O[C@@H]2O[C@H](C)C[C@H](N(C)C)[C@H]2O)[C@](C)(OC)C[C@@H](C)C(=NOC)[C@H](C)[C@H]2OC(=O)O[C@@]21C [63b] , report its MIC.
[reply] 4

* * *

Assignment: determine reported log10 of MIC for the given compounds.
System: S. pyogenes
Assay notes: MIC, broth microdilution
Assay type: cell-based, Streptococcus pyogenes
Condition label: S. pyogenes 12-206, c-ermTR
Scale: log10; quantity: MIC; unit before log: µg/mL

Recorded results for 5 compounds are shown here.
CC[C@H]1OC(=O)[C@H](C)[C@@H](OC(=O)NCCCCCCC#Cc2ccc3c(c2)c(=O)c(C(=O)O)cn3C2CC2)[C@H](C)[C@@H](O[C@@H]2O[C@H](C)C[C@H](N(C)C)[C@H]2O)[C@](C)(O)C[C@@H](C)CN(C)[C@H](C)[C@H]2OC(=O)O[C@@]21C [111a] = 2.11
CC[C@H]1OC(=O)[C@H](C)[C@@H](OC(=O)NCCNCCC#Cc2ccc3c(=O)c(C(=O)O)cn(C4CC4)c3c2)[C@H](C)[C@@H](O[C@@H]2O[C@H](C)C[C@H](N(C)C)[C@H]2O)[C@](C)(OC)C[C@@H](C)C(=NOC)[C@H](C)[C@H]2OC(=O)O[C@@]21C [74c] = 0.30
CC[C@H]1OC(=O)[C@H](C)[C@@H](OC(=O)NCCCCCCCCc2ccc3c(=O)c(C(=O)O)cn(C)c3c2)[C@H](C)[C@@H](O[C@@H]2O[C@H](C)C[C@H](N(C)C)[C@H]2O)[C@](C)(OC)C[C@@H](C)C(=O)[C@H](C)[C@H]2NC(=O)O[C@@]21C [90g] = -0.92
CC[C@H]1OC(=O)[C@H](C)[C@@H](OC(=O)NCCCOCCC#Cc2ccc3c(c2)c(=O)c(C(=O)O)cn3C2CC2)[C@H](C)[C@@H](O[C@@H]2O[C@H](C)C[C@H](N(C)C)[C@H]2O)[C@](C)(O)C[C@@H](C)CN(C)[C@H](C)[C@H]2OC(=O)O[C@@]21C [117a] = 2.71
CC[C@H]1OC(=O)[C@H](C)[C@@H](OC(=O)NCCCCC#Cc2ccc3c(c2)c(=O)c(C(=O)O)cn3C2CC2)[C@H](C)[C@@H](O[C@@H]2O[C@H](C)C[C@H](N(C)C)[C@H]2O)[C@](C)(O)C[C@@H](C)CN(C)[C@H](C)[C@H]2OC(=O)O[C@@]21C [109a] = 2.11

Consider the following items and state reported log10 of MIC for each.
1. CC[C@H]1OC(=O)[C@H](C)[C@@H](OC(=O)NCCCCCCCCc2ccc3c(c2)c(=O)c(C(N)=O)cn3C2CC2)[C@H](C)[C@@H](O[C@@H]2O[C@H](C)C[C@H](N(C)C)[C@H]2O)[C@](C)(OC)C[C@@H](C)C(=NOC)[C@H](C)[C@H]2OC(=O)O[C@@]21C [62b]
2. CC[C@H]1OC(=O)[C@H](C)[C@@H](OC(=O)NCCCCCCC#Cc2ccc3c(=O)c(C(=O)O)cn(C4CC4)c3c2)[C@H](C)[C@@H](O[C@@H]2O[C@H](C)C[C@H](N(C)C)[C@H]2O)[C@](C)(OC)C[C@@H](C)C(=O)[C@H](C)[C@H]2NC(=O)O[C@@]21C [88c]
3. CC[C@H]1OC(=O)[C@H](C)[C@@H](OC(=O)NCCCCCCCCCc2ccc3c(c2)c(=O)c(C(N)=O)cn3C2CC2)[C@H](C)[C@@H](O[C@@H]2O[C@H](C)C[C@H](N(C)C)[C@H]2O)[C@](C)(OC)C[C@@H](C)C(=NOC)[C@H](C)[C@H]2OC(=O)O[C@@]21C [63b]
4. CC[C@H]1OC(=O)[C@H](C)[C@@H](OC(=O)NCCCCCCC#Cc2ccc3c(=O)c(C(=O)O)cn(C4CC4)c3c2)[C@H](C)[C@@H](O[C@@H]2O[C@H](C)C[C@H](N(C)C)[C@H]2O)[C@](C)(OC)C[C@@H](C)C(=NOC)[C@H](C)[C@H]2OC(=O)O[C@@]21C [58c]
5. CC[C@H]1OC(=O)[C@H](C)[C@@H](O[C@H]2C[C@@](C)(OC)[C@@H](O)[C@H](C)O2)[C@H](C)[C@@H](O[C@@H]2O[C@H](C)C[C@H](N(C)C)[C@H]2O)[C@](C)(OC)C[C@@H](C)C(=O)[C@H](C)[C@@H](O)[C@]1(C)O [clarithromycin, reference compound]
6. CC[C@H]1OC(=O)[C@H](C)[C@@H](OC(=O)NCCCCCC#Cc2ccc3c(c2)c(=O)c(C(=O)O)cn3C2CC2)[C@H](C)[C@@H](O[C@@H]2O[C@H](C)C[C@H](N(C)C)[C@H]2O)[C@](C)(O)C[C@@H](C)CN(C)[C@H](C)[C@H]2OC(=O)O[C@@]21C [110a]

[reply]
[1.20, 0.00, 1.20, 0.30, 2.71, 2.71]

Consider the following items and state reported log10 of MIC for each.
1. CC[C@H]1OC(=O)[C@H](C)[C@@H](OC(=O)NCCOCCC#Cc2ccc3c(c2)c(=O)c(C(=O)O)cn3C2CC2)[C@H](C)[C@@H](O[C@@H]2O[C@H](C)C[C@H](N(C)C)[C@H]2O)[C@](C)(O)C[C@@H](C)CN(C)[C@H](C)[C@H]2OC(=O)O[C@@]21C [116a]
2. CC[C@H]1OC(=O)[C@H](C)[C@@H](OC(=O)NCCOCCC#Cc2ccc3c(=O)c(C(=O)O)cn(C4CC4)c3c2)[C@H](C)[C@@H](O[C@@H]2O[C@H](C)C[C@H](N(C)C)[C@H]2O)[C@](C)(O)C[C@@H](C)CN(C)[C@H](C)[C@H]2OC(=O)O[C@@]21C [116c]
3. CC[C@H]1OC(=O)[C@H](C)[C@@H](OC(=O)NCCCCCCC#Cc2ccc3c(=O)c(C(=O)O)cn(C4CC4)c3c2)[C@H](C)[C@@H](O[C@@H]2O[C@H](C)C[C@H](N(C)C)[C@H]2O)[C@](C)(O)C[C@@H](C)CN(C)[C@H](C)[C@H]2OC(=O)O[C@@]21C [111c]
4. CC[C@H]1OC(=O)[C@H](C)[C@@H](OC(=O)NCCOCCC#Cc2ccc3c(=O)c(C(=O)O)cn(C4CC4)c3c2)[C@H](C)[C@@H](O[C@@H]2O[C@H](C)C[C@H](N(C)C)[C@H]2O)[C@](C)(OC)C[C@@H](C)C(=NOC)[C@H](C)[C@H]2OC(=O)O[C@@]21C [70c]

[reply]
[2.71, 0.90, 0.30, 0.30]

[ask] Using the record for CC[C@H]1OC(=O)[C@H](C)[C@@H](OC(=O)NCCCC#Cc2ccc3c(=O)c(C(=O)O)cn(C4CC4)c3c2)[C@H](C)[C@@H](O[C@@H]2O[C@H](C)C[C@H](N(C)C)[C@H]2O)[C@](C)(O)C[C@@H](C)CN(C)[C@H](C)[C@H]2OC(=O)O[C@@]21C [108c] , report its log10 of MIC.
[reply] 1.81
